Experiment: Water solubility
Type: physicochemical
Conditions: after standing for one month
parameter: solubility at 730 h (mg/mL)
The response must be a number in mg/mL with no trailing unit.

input: Using the record for CNC(=O)c1c(I)c(NC(=O)OCC(=O)[C@@H](O)[C@H](O)[C@@H](O)CO)c(I)c(C(=O)N(C)C)c1I [Example I] , report its solubility at 730 h.
output: 200

---

Assay: Water solubility
Type: physicochemical
Conditions: read-out: Water solubility
parameter: solubility

input: Using the record for `CNC(=O)c1c(I)c(NC(=O)OC[C@@H](O)[C@H](O)[C@H](O)[C@@H](O)C=O)c(I)c(N(C)C(C)=O)c1I` , report its solubility.
output: ≥ 1000 mg/mL

---

Assay: Water solubility
Format: physicochemical
Details: initial determination, read-out: Water solubility (initially)
parameter: solubility (mg/mL)
The response must be a number in mg/mL with no trailing unit.

input: Using the record for `CNC(=O)c1c(I)c(NC(=O)OCC(=O)[C@@H](O)[C@H](O)[C@@H](O)CO)c(I)c(C(=O)N(C)C)c1I` , report its solubility.
output: 1000
